Values compiled from patent US12187706B2.

- target_under_test: NLRP3 (Homo sapiens, UniProt Q96P20)
- Construct: host or cells: PMA-differentiated THP-1 cells
- Sequence (Q96P20 whole entry): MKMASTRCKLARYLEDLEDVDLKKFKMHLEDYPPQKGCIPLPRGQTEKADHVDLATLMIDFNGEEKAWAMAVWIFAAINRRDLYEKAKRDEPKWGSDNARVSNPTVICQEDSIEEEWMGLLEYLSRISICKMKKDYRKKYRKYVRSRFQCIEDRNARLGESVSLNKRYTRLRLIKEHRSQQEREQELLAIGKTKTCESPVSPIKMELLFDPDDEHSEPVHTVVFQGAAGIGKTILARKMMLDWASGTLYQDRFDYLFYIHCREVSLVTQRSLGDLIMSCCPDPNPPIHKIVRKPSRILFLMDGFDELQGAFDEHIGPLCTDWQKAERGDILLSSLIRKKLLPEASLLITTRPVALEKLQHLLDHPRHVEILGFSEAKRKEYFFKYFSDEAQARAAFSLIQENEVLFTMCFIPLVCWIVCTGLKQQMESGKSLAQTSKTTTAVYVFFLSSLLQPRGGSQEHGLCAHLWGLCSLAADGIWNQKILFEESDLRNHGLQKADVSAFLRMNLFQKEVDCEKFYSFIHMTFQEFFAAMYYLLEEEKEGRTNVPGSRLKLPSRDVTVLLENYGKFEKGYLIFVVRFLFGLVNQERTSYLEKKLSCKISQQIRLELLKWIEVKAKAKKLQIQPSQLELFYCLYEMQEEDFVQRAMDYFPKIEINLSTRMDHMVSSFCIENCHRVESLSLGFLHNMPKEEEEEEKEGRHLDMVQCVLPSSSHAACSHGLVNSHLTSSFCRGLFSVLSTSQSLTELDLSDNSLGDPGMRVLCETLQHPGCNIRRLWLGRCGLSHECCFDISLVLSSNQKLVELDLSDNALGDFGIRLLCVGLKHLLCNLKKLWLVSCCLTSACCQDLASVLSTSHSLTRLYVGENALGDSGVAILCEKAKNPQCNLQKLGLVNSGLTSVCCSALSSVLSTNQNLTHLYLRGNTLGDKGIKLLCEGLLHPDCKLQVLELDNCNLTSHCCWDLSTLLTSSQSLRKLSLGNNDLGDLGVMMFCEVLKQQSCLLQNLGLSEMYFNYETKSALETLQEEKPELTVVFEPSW
- assay_remarks: Measurement of IL-1β production in PMA-differentiated THP-1 cells (NLRP3 hIL1B)
- Assay type: cell-based
recorded_endpoint: pEC50
In simple prose, pEC50 is minus the logarithm base ten of a concentration in moles per litre.

Example entries and their recorded answers appear below.
INSERT INTO assay_data (compound, recorded_endpoint, observed_value) VALUES
  ('Nc1nc(NC(CO)c2cccnc2)c2ccc(-c3ccn[nH]3)cc2n1 (centres unmarked)', 'pEC50', 5.90),
  ('COCc1noc(CNc2nc(N)nc3cc(-c4ccn[nH]4)ccc23)n1', 'pEC50', 6.12),
  ('Nc1nc(Nc2cc(CCO)[nH]n2)c2ccc(-c3ccn[nH]3)cc2n1', 'pEC50', 6.30),
  ('Nc1nc(NCCc2ccccn2)c2ccc(-c3cc[nH]n3)cc2n1', 'pEC50', 6.31),
  ('Nc1nc(OCCO)c2ccc(-c3ccn[nH]3)cc2n1', 'pEC50', 5.18),
  ('Nc1nc(NCC(O)CC(F)(F)F)c2ccc(-c3ccn[nH]3)cc2n1 (centres unmarked)', 'pEC50', 6.12),
  ('Nc1nc(NCC2CC2(F)F)c2ccc(-c3cc[nH]n3)cc2n1 (single isomer, unassigned) [Example 199]', 'pEC50', 7.10),
  ('Nc1nc(N[C@H]2CCOC2)c2ccc(-c3ccn[nH]3)cc2n1', 'pEC50', 6.17);

// query Please report the recorded pEC50 for C[C@@H](O)[C@@H](CO)Nc1nc(N)nc2cc(-c3ccn[nH]3)ccc12 .
// result 5.43

// query Please report the recorded pEC50 for COc1cccc(CNc2nc(N)nc3cc(-c4ccn[nH]4)ccc23)n1 .
// result 6.19

// query Please report the recorded pEC50 for Cn1c(CCNc2nc(N)nc3cc(-c4ccn[nH]4)ccc23)nc2ccccc21 .
// result 5.39

// query Please report the recorded pEC50 for COc1cnnc(CNc2nc(N)nc3cc(-c4ccn[nH]4)ccc23)c1 .
// result 5.08

// query Please report the recorded pEC50 for Nc1nc(N[C@H]2CCC[C@@H](O)C2)c2c(F)cc(-c3cc[nH]n3)cc2n1 (racemic) .
// result 6.11

// query Please report the recorded pEC50 for Nc1nc(NCc2cc[nH]n2)c2c(F)cc(-c3cc[nH]n3)cc2n1 .
// result 6.22

// query Please report the recorded pEC50 for N#C[C@H]1CC[C@H](Nc2nc(N)nc3cc(-c4ccn[nH]4)ccc23)C1 (single isomer, unassigned) .
// result 6.77

// query Please report the recorded pEC50 for COC(CO)CNc1nc(N)nc2cc(-c3ccn[nH]3)ccc12 (single isomer, unassigned) [Example 203] .
// result 6.35

====

- target_under_test: NLRP3 (Homo sapiens, UniProt Q96P20)
- assay_remarks: Measurement of IL-1β production in PMA-differentiated THP-1 cells (NLRP3 hIL1B)
# reported EC50; entries follow
Only the number, expressed in nM, is required.

// query Please report the recorded EC50 for Nc1nc(NCc2cccnc2)c2ccc(-c3ccn[nH]3)cc2n1 [Example 144] .
// result 90

// query Please report the recorded EC50 for Nc1nc(NCCCO)c2c(-c3cc[nH]n3)cc(-c3cc[nH]n3)cc2n1 [Example 19] .
// result 9860

// query Please report the recorded EC50 for COCCNc1nc(N)nc2cc(-c3ccn[nH]3)ccc12 [Example 102] .
// result 210

// query Please report the recorded EC50 for CC(C)(O)C(O)CNc1nc(N)nc2cc(-c3ccn[nH]3)ccc12 (single isomer, unassigned) [Example 10] .
// result 1860

// query Please report the recorded EC50 for C[C@]1(O)CC[C@@H](Nc2nc(N)nc3cc(-c4ccn[nH]4)ccc23)C1 (racemic) [Example 107] .
// result 670

// query Please report the recorded EC50 for CN1CC[C@H](Nc2nc(N)nc3cc(-c4ccn[nH]4)ccc23)C1 [Example 139] .
// result 1770

// query Please report the recorded EC50 for Nc1nc(NCc2cnc[nH]2)c2ccc(-c3ccn[nH]3)cc2n1 [Example 87] .
// result 1630

// query Please report the recorded EC50 for Cc1noc(C)c1CNc1nc(N)nc2cc(-c3ccn[nH]3)ccc12 [Example 81] .
// result 1200

// query Please report the recorded EC50 for CC(CCO)Nc1nc(N)nc2cc(-c3ccn[nH]3)ccc12 (single isomer, unassigned) [Example 200] .
// result 860

// query Please report the recorded EC50 for Nc1nc(NCc2ncco2)c2ccc(-c3ccn[nH]3)cc2n1 [Example 61] .
// result 220

// query Please report the recorded EC50 for COc1ncc(CNc2nc(N)nc3cc(-c4ccn[nH]4)ccc23)cn1 [Example 48] .
// result 2920

// query Please report the recorded EC50 for COCC(O)CNc1nc(N)nc2cc(-c3ccn[nH]3)ccc12 (centres unmarked) [Example 72] .
// result 530

// query Please report the recorded EC50 for Nc1nc(NC(CO)c2ncc[nH]2)c2ccc(-c3ccn[nH]3)cc2n1 (centres unmarked) [Example 34] .
// result 7670

// query Please report the recorded EC50 for Nc1nc(NCc2cncnc2)c2c(F)cc(-c3cc[nH]n3)cc2n1 [Example 128] .
// result 830

// query Please report the recorded EC50 for Nc1nc(NCC2(O)CC2)c2ccc(-c3cc[nH]n3)cc2n1 [Example 197] .
// result 310

// query Please report the recorded EC50 for Nc1nc(N[C@@H]2CCC[C@@H]2O)c2ccc(-c3ccn[nH]3)cc2n1 [Example 30] .
// result 300
